- Tested on: ACHN renal
- experiment_notes: NCI tumour cell line growth inhibition, 48 h
experimental_readout: TGI

O=C(OCc1ccccc1)N1CCNCCN(C(=O)OCc2ccccc2)CCNCC1 ... > 100 µM
Nc1nc(SCCC/C=C/I)nc2c1ncn2C1OC(COP(=O)(O)O)C(O)C1O (stereo not drawn) ... > 100 µM

Please find the next compound below.
Exercise: Return reported TGI. Input compound: "Cc1ccnc(NS(=O)(=O)c2ccc(N=[N+]=[N-])cc2)n1"
Solution: > 100 µM

---

- Tested on: RPMI-8226 leukemia
- experiment_notes: NCI tumour cell line growth inhibition, 48 h; in the data active means GI50 below about 0.43 µM; inactive means the rest
Respond using exactly one of the listed classes: 1 (active), -1 (inactive)

Solved entries:
CCCCCCCCCCCCC(O)c1ccc(C#CCCCCCCCCCO)o1 (stereo unspecified) ... -1
Nc1ccccc1SC(CC(=O)c1ccccc1)c1cccc([N+](=O)[O-])c1 (stereo unspecified) ... -1

Exercise: Outcome? "O=C(/C(=C/c1ccc([N+](=O)[O-])cc1)SCc1ccccc1)c1ccc(Cl)cc1"
Solution: -1

---

- Test system: MALME-3M melanoma
- experiment_notes: NCI tumour cell line growth inhibition, 48 h
experimental_readout: TGI

Consider the worked cases shown below.
O=C1NC(=NC(CO)Cc2ccccc2)S/C1=C\c1ccc2ncccc2c1 (stereo unspecified) ... > 25 µM
C#CCn1c(=O)c2ccccc2n(CC#C)c1=O ... > 10 µM
O=[N+]([O-])c1ccc2[nH]nc(OCc3ccccc3Cl)c2c1 ... > 100 µM
S=c1sc2c(n1-c1ccccc1)NC=NC2S (stereo unspecified) ... > 100 µM

Exercise: Return reported TGI. Input compound: "N=c1nnc2ccc(Cl)cc2n1O"
Solution: > 100 µM

Exercise: Return reported TGI. Input compound: "N[C@@H](CCC(=O)NCP(=O)(O)O)C(=O)O"
Solution: > 100 µM

---

- Tested on: NCI-H460 lung
- experiment_notes: NCI tumour cell line growth inhibition, 48 h
experimental_readout: TGI

S=c1sc2c(n1-c1ccccc1)NC=NC2S (stereo not drawn) ... > 100 µM
COC(=O)[C@@H](O)[C@](O)(CCC(C)C)C(=O)O[C@@H]1C(OC)=C[C@]23CCCN2CCc2cc4c(cc2[C@H]13)OCO4 ... 1.7 µM

Exercise: Return reported TGI. Input compound: "COc1ccc(/C=c2\sc3n(c2=O)CCN=3)cc1"
Solution: > 100 µM

---

- Test system: HL-60(TB) leukemia
- experiment_notes: NCI tumour cell line growth inhibition, 48 h
experimental_readout: TGI

Consider the worked cases shown below.
COC(=O)C1=C(C(=O)OC)SC(=C2SCSC3=C2SC(C(=O)OC)=C(C(=O)OC)C32SC3=C(CCCC3)S2)S1 ... > 100 µM
Nc1nccc(-c2c[nH]c3cc(Br)ccc23)n1 ... > 100 µM

Exercise: Return reported TGI. Input molecule: "Cn1c2ccc3cc2c(=S)c2cc(ccc21)OCCOCCOCCOCCOCCOCCO3"
Solution: > 10 µM

---

- Tested on: RPMI-8226 leukemia
- experiment_notes: NCI tumour cell line growth inhibition, 48 h
Catalogue of TGI values

Cc1ccc(NC(=O)c2ccc(OP(=O)(O)Nc3ccc(C)cc3)cc2)cc1 ... > 100 µM
COc1nc(NC2OC(COC(C)=O)C(OC(C)=O)C(OC(C)=O)C2OC(C)=O)c2c(OC(C)=O)cc(=O)oc2n1 (configuration not stated) ... > 100 µM
Nc1nc2c(c(-c3cccc(Cl)c3)n1)COC/C2=C\c1cccc(Cl)c1 ... > 100 µM
COc1ccc(C(=C2C=CC=C2)c2ccc(OC)cc2)cc1 ... 28 µM
CC1SC(c2ccc(F)cc2)N(NC(=O)C(O)c2ccccc2)C1=O (configuration not stated) ... > 100 µM

Exercise: Return reported TGI. Input compound: "Cc1cc2c(C)[nH]nc2c(C(=O)O)c1C"
Solution: > 100 µM

Exercise: Return reported TGI. Input compound: "c1ccc(NCn2cnc3ccccc32)cc1"
Solution: 71.6 µM

---

- Tested on: SK-MEL-28 melanoma
- experiment_notes: NCI tumour cell line growth inhibition, 48 h
experimental_readout: TGI

N#C/C(=C1/Sc2c(nc[nH]c2=O)N1c1ccccc1)c1nc2ccccc2[nH]1 ... > 100 µM
Nc1ccc(C2=NNC(=O)Cc3cc4c(cc32)OCCO4)cc1Cl ... > 50 µM
COC(=O)C(CCCN1C(=O)c2ccccc2C1=O)C(=O)OC ... > 100 µM

Exercise: Return reported TGI. Input compound: "COC(=O)[C@@H](O)[C@](O)(CCC(C)C)C(=O)O[C@@H]1C(OC)=C[C@]23CCCN2CCc2cc4c(cc2[C@H]13)OCO4"
Solution: 2.78 µM

Exercise: Return reported TGI. Input compound: COc1ccc2nc3cc(Cl)ccc3c(NCCNCC(C)O)c2c1 (centres undefined)
Solution: 4.02 µM

Exercise: Return reported TGI. Input compound: COc1cc(S(=O)(=O)Nc2nc(-c3ccc(N4C(=O)C(CC(=O)O)SC4c4cccs4)cc3)cs2)ccc1Cl (centres undefined)
Solution: > 100 µM

Exercise: Return reported TGI. Input compound: "Nc1n[nH]c2cccc(C#Cc3cccc(C(=O)Nc4ccc(CN5CCOCC5)c(C(F)(F)F)c4)c3)c12"
Solution: 7.08 µM

Exercise: Return reported TGI. Input compound: O=C(C1OC1c1ccc(Br)cc1O)C12CC3CC(CC(C3)C1)C2 (centres undefined)
Solution: 46.8 µM

Exercise: Return reported TGI. Input compound: "O=C(O)c1ccc2c(c1C(=O)O)C(=O)OC2(c1ccc(O)cc1)c1ccc(O)cc1"
Solution: > 100 µM

---

- Test system: U251 CNS
- experiment_notes: NCI tumour cell line growth inhibition, 48 h
experimental_readout: TGI

O=[N+]([O-])c1ccc2[nH]nc(OCc3ccccc3Cl)c2c1 ... > 100 µM
COc1nc(NC2OC(COC(C)=O)C(OC(C)=O)C(OC(C)=O)C2OC(C)=O)c2c(OC(C)=O)cc(=O)oc2n1 (centres undefined) ... > 100 µM
O=C(/C=C/c1ccc2c(c1)OCO2)Cc1nc2ncccc2[nH]c1=O ... > 100 µM
Cc1ccc(N(Cc2ccccc2)Cc2ccccc2)cc1 ... > 100 µM
CC(=O)N(C(=O)CC(=O)N1N=C(c2ccccc2)C(N=Nc2ccccc2[N+](=O)[O-])C1=O)c1ccc(Cl)cc1 (centres undefined) ... > 10 µM

Exercise: Retrieve TGI on U251 CNS; query "Oc1ccc(Cc2cc(Cc3ccc(O)cc3)cc(Cc3ccc(O)cc3)c2)cc1"
Solution: > 50 µM

Exercise: Retrieve TGI on U251 CNS; query CC1SC(c2ccc(F)cc2)N(NC(=O)C(O)c2ccccc2)C1=O (centres undefined)
Solution: > 100 µM

Exercise: Retrieve TGI on U251 CNS; query O=C1CCC2(c3ccc(Cl)cc3)Nc3ccncc3N12 (centres undefined)
Solution: > 10 µM

Exercise: Retrieve TGI on U251 CNS; query "COc1ccc(N=NC(=Nc2ccccc2)c2ccc(N(CCC#N)CCC#N)cc2)cc1"
Solution: > 100 µM

Exercise: Retrieve TGI on U251 CNS; query "Cc1ccnc(NS(=O)(=O)c2ccc(N=[N+]=[N-])cc2)n1"
Solution: > 100 µM

Exercise: Retrieve TGI on U251 CNS; query "CC(C)=CCC[C@@H](C)c1c(O)c(O)c(C)c2nccnc12"
Solution: > 100 µM

Exercise: Retrieve TGI on U251 CNS; query "C=C1C(=O)O[C@H]2[C@H]1CC/C(COC(=O)NCc1ccc(Cn3c(=O)sn(-c4ccc(OC)cc4)c3=O)cc1)=C\CC[C@@]1(C)O[C@@H]21"
Solution: 13.9 µM

---

Catalogue of GI50 values
- Tested on: BT-549 breast
- experiment_notes: NCI tumour cell line growth inhibition, 48 h

Consider the worked cases shown below.
Nc1cc(NN=C(c2ccc(O)cc2)c2ccc(O)cc2)c([N+](=O)[O-])cc1[N+](=O)[O-] ... 2460 nM
COCCOc1ccc(-c2nc3ccc(-c4nc5ccc(N6CCN(C)CC6)cc5[nH]4)cc3[nH]2)cc1 ... 1760 nM
COc1ccc(C2[C@@H](c3ccccc3)C(=O)N2c2cc(OC)c(OC)c(OC)c2)cc1F (stereo not given in full) ... 26.6 nM
CCN(C(=O)N1CCN(c2cc3c(cc2F)c(=O)c(C(=O)O)cn3C2CC2)CC1)c1nc(-c2ccc(Cl)cc2)cs1 ... 1020 nM

Exercise: Retrieve GI50 on BT-549 breast; query Nc1ccccc1SC(CC(=O)c1ccccc1)c1cccc([N+](=O)[O-])c1 (stereo not given)
Solution: 17000 nM

---

- Test system: TK-10 renal
- experiment_notes: NCI tumour cell line growth inhibition, 48 h
experimental_readout: TGI

Consider the worked cases shown below.
O=C1c2cc3c(cc2-c2c1c1ccc(F)cc1c(=O)n2C[C@H](O)[C@@H](O)[C@H](O)CO)OCO3 ... 0.858 µM
COc1cccc(C2SC(N)=Nc3c2c(C)nn3C(=O)c2ccccc2O)c1 (stereo not drawn) ... > 10 µM
COc1ccc(N=NC(=Nc2ccccc2)c2ccc(N(CCC#N)CCC#N)cc2)cc1 ... > 100 µM
C/C(CCn1[nH]c(=O)ccc1=O)=N\NC(=O)C(=O)NN ... > 100 µM
Cc1ccccc1C(=N)c1ccccc1Cc1cccc2ccccc12 ... > 100 µM

Exercise: Retrieve TGI on TK-10 renal; query "O=C1CN(c2cccc(Cl)c2)C(=O)CN1CCN1CC(=O)N(c2cccc(Cl)c2)CC1=O"
Solution: > 100 µM

Exercise: Retrieve TGI on TK-10 renal; query "COc1ncc(/C=C2\OC(=O)c3ccccc32)c(OC)n1"
Solution: > 100 µM

Exercise: Retrieve TGI on TK-10 renal; query "Cc1cc(-c2nc3ccc(F)cc3s2)ccc1NC(=O)[C@H](C)N"
Solution: 5.11 µM
